- method_description: amyloid nucleation score (Sup35N fusion, yeast selection) (log enrichment); library NNK2; higher = more nucleation; inactive = no reads after selection;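 further: zero at mode of non-aggregating sequences after 7 days selection at 30°C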
Classification scheme (amyloid nucleation score): lower: < 0.02; middle: ≥ 0.02 and < 0.7; upper: ≥ 0.7

CTPNWRLSSFRWYVLRTFSE : middle

--- query ---
Input line: Sort QNCQFGMH into one of the categories.
Output line: upper

---

- method_description: amyloid nucleation score (Sup35N fusion, yeast selection) (log enrichment); library NNK2; higher = more nucleation; inactive = no reads after selection
Outcome: Fulfilled for amyloid nucleation score of at least 0.1; Not fulfilled for anything lower.

Input line: Tell me whether amyloid nucleation score is at least 0.1 here: QVSDVRDLNFWISVTHVEVG
Output line: Fulfilled

Input line: Record DWQCRGLQYQWFGGVWDANV ; criterion: amyloid nucleation score no lower than 0.1. Met?
Output line: Not fulfilled

Input line: Please tell me: is the substance FYYCRALWVYLVTCWHCLSY at or over 0.1 in terms of amyloid nucleation score?
Output line: Not fulfilled

---

Provide the recorded amyloid nucleation score for the entries that follow.
- method_description: amyloid nucleation score (Sup35N fusion, yeast selection) (log enrichment); library NNK1; higher = more nucleation; inactive = no reads after selection
One number for each entry.

KRPSSFVEFFMLWRSKAR : 0.947
ATLLFRFV : 0.831
TWGRVFSLMAPFISRPCFWG : -0.385
SKYLCNMLPISDLHMGQTFN : -0.391
MFIVYRMDLEFM : 1.64
SEIPVNGLARLCRGRYRNRQ : 4.66
NMHNQVAFISCSFILFDVIN : 6.95
YGFRQGTTSDNGTFTRIVHM : -0.336
KEYNNPRLKLTMRRFAAKS : 0.539
NMIVKSATEAANSP : 1.25

I would be grateful if you could provide amyloid nucleation score for each of the following entries.
1. RSEVEFNTPHLLKCVPDMSF
2. EPYSLAIKGVHTLLRGSRKS
3. LEGITELWRVMSYLMMTMVR
4. IKWWKLCGVVRIGNNCLRYL

Output line:
1. 0.587
2. 0.571
3. -0.457
4. 0.64

Consider the following items and state reported amyloid nucleation score for each.
1. IYYGQGICLVFAFNLLCNVL
2. CQELYLKFVVENFSTFLRNH
3. TVLSSFLLKLRLTIVSCFLR

Output line:
[6.26, -2.68, -0.082]

---

- method_description: amyloid nucleation score (Sup35N fusion, yeast selection) (log enrichment); library NNK2; higher = more nucleation; inactive = no reads after selection
measure_name: amyloid nucleation score

VLVIGSIVYVCLSKDCCFNV : 9.54
WLLWNSECIANCAFTRYSMF : -0.079
LFQSLNLISINSVVPYEPVT : 2.43
KWNVFGDDGMREARLNLSGV : -0.69
FRGTCYMAIVDYLCNTFEGP : 1.37
LWHESC : -0.119

// each substance listed below needs its amyloid nucleation score
1. GYCPLGAPCAGM
2. RCEFFGVGMSREKNMGCSKC
3. LLRCSLHNKLTLSFDFAFVV

Output line:
1: 1.23; 2: 0.875; 3: inactive

I would be grateful if you could provide amyloid nucleation score for each of the following entries.
1. NLRNKIVGLTKGLVCRANVV
2. VDYGQRAPTCITSHYHLNRC
3. SFLLRWSRFVYICYSICCMI
4. VLEDNALVRYKDRGSSGWTV
5. ASLGPRFTDRTVQSHVNTRC
6. ILNNMIL
7. LRLVYISTMIQMPFGRRVF
8. MLLIIVWQILMKLNGWITVL

Output line:
1: 2.34; 2: 0.227; 3: -1.02; 4: 3.15; 5: 0.147; 6: 2.55; 7: 3.73; 8: inactive

Okay, here is my list. What is amyloid nucleation score for each of these?
1. IVLLPWSCEM
2. LVLSGGRV
3. FMSGRESAVCLFKNFSVLRS
4. SGTDHNRMYF

Output line:
[1.26, 0.184, 2.76, 0.312]

// for each substance in input: emit amyloid nucleation score
1. IMYVMGVVFNTMWVSA
2. LQVMEIYSLSIYYIYFLYIG
3. LIVCRFDFPSNFSVDFFRVM
4. YLTEALPDRSRYRSTSVMCV

Output line:
1: -1.11; 2: inactive; 3: 0.14; 4: 1.86
